# credit: patent EP3153515A1

Test system: HCV NS5A replicon GT-4a
assay.notes: HCV NS5A replicon anti-viral activity (EC50), GT-4a
Format: cell-based
assay.context: Hepatitis C virus, genotype 1a / genotype 4a / genotype 6a, read-out: Inhibitory activity against various HCV-NS5A subtypes(EC50, GT-1a to GT-6a) GT-4a
measured.quantity: pEC50
Answers are plain numbers, as −log10 of the molar value.

// batch mode: one pEC50 value per listed entry
1. COC(=O)N[C@H](C(=O)N1CCC[C@H]1c1nc(-c2ccc(-c3ccc(-c4cnc([C@@H]5C=CCN5C(=O)[C@H](NC(=O)OC)c5ccccc5)[nH]4)cc3)cc2)c[nH]1)C(C)C
2. COC(=O)N[C@H](C(=O)N1CCC[C@H]1c1ncc(-c2ccc(-c3cc4sc(-c5cnc([C@@H]6C=CCN6C(=O)[C@H](NC(=O)OC)c6ccccc6)[nH]5)cc4s3)cc2)[nH]1)C(C)C
3. COC(=O)N[C@H](C(=O)N1CCC[C@H]1c1nc(-c2ccc(-c3ccc(-c4cnc([C@@H]5CCCN5C(=O)[C@@H](NC(=O)OC)C(C)C)[nH]4)cc3)cc2)c[nH]1)C(C)C [Ref-1, BMS-790052, reference compound]
4. COC(=O)N[C@H](C(=O)N1CC=C[C@H]1c1ncc(-c2ccc(-c3ccc(-c4c[nH]c([C@@H]5CCCN5C(=O)[C@@H](NC(=O)OC)C(C)C)n4)cc3)cc2)[nH]1)C(C)C

(A)
1. 11.10
2. 10.92
3. 10.96
4. 11.00

(Q) // pEC50 lookup, key: COC(=O)N[C@H](C(=O)N1CC=C[C@H]1c1ncc(-c2ccc(-c3cc4sc(-c5cnc([C@@H]6CCCN6C(=O)[C@H](NC(=O)OC)c6ccccc6)[nH]5)cc4s3)cc2)[nH]1)C(C)C
(A) 11.30

====

Assign log10 of EC50 to each entry below.
System: HCV NS5A replicon GT-3a
assay.notes: HCV NS5A replicon anti-viral activity (EC50), GT-3a
Assay type: cell-based
assay.context: Hepatitis C virus, genotype 1a / genotype 3a / genotype 6a, read-out: Inhibitory activity against various HCV-NS5A subtypes(EC50, GT-1a to GT-6a) GT-3a
Form field - Quantity: EC50; Unit: nM; Scale: log10

Known results for compounds:
- compound: "COC(=O)N[C@H](C(=O)N1CC=C[C@H]1c1ncc(-c2ccc(-c3cc4sc(-c5cnc([C@@H]6CCCN6C(=O)[C@H](NC(=O)OC)c6ccccc6)[nH]5)cc4s3)cc2)[nH]1)C(C)C"
  target.or.system: "HCV NS5A replicon GT-3a"
  log10 of EC50: -1.59
- compound: "COC(=O)N[C@H](C(=O)N1CCC[C@H]1c1nc(-c2ccc(-c3ccc(-c4cnc([C@@H]5CCCN5C(=O)[C@@H](NC(=O)OC)C(C)C)[nH]4)cc3)cc2)c[nH]1)C(C)C [Ref-1, BMS-790052, reference compound]"
  target.or.system: "HCV NS5A replicon GT-3a"
  log10 of EC50: -0.66
- compound: "COC(=O)N[C@H](C(=O)N1CCC[C@H]1c1nc(-c2ccc(-c3ccc(-c4cnc([C@@H]5C=CCN5C(=O)[C@H](NC(=O)OC)c5ccccc5)[nH]4)cc3)cc2)c[nH]1)C(C)C"
  target.or.system: "HCV NS5A replicon GT-3a"
  log10 of EC50: -1.82
- compound: "COC(=O)N[C@H](C(=O)N1CCC[C@H]1c1ncc(-c2ccc(-c3cc4sc(-c5cnc([C@@H]6C=CCN6C(=O)[C@H](NC(=O)OC)c6ccccc6)[nH]5)cc4s3)cc2)[nH]1)C(C)C"
  target.or.system: "HCV NS5A replicon GT-3a"
  log10 of EC50: -1.62

Proceeding to the next compound to report its log10 of EC50.
(Q) // log10 of EC50 lookup, key: COC(=O)N[C@H](C(=O)N1CC=C[C@H]1c1ncc(-c2ccc(-c3ccc(-c4c[nH]c([C@@H]5CCCN5C(=O)[C@@H](NC(=O)OC)C(C)C)n4)cc3)cc2)[nH]1)C(C)C
(A) -0.76
